Data provenance: ChEMBL document CHEMBL3407452

- Procedure Text: Cytotoxicity against human HuH6 cells after 72 hrs by MTS assay
- Format: cell-based
Readout Type: CC50 at 72 h

Param item = `O=C(NCCCCCCCCCCCCNC(=O)c1ccc(O)c(O)c1O)c1ccc(O)c(O)c1O` ; retrieve measured CC50 at 72 h.
> 100 µM

* * *

- System: Hepatitis C virus
- Procedure Text: Antiviral activity against HCV genotype 1b I389luc-ubi-neo/NS3-3'/5.1 replicons infected in human Huh5-2 HCV subgenomic replicon-containing cells assessed as reduction in virus replication after 3 days by luciferase reporter gene assay
- Type: functional, Hepacivirus hominis
- Assay Conditions: Hepatitis C virus, genotype 1b, Huh-5-2, 72 h
Provide the recorded EC90 for the entries that follow.

In the examples that follow, each entry is paired with its recorded EC90.
>>> df
                                   compound  readout_type  observed_value
0  O=C(NCCCCNC(=O)c1ccc(O)c(O)c1O)c1ccc(O)c(O)c1O          EC90         > 50 µM
1  CCCCCCOC(=O)c1cc(O)c(O)c(O)c1 [HEXYL GALLATE]          EC90         > 50 µM
2  O=C(NCCCCNC(=O)c1cc(O)c(O)c(O)c1)c1cc(O)c(O)c(O)c1          EC90         > 29 µM
3  O=C(OCCCCCCCCOC(=O)c1cc(O)c(O)c(O)c1)c1cc(O)c(O)c(O)c1          EC90           55 µM
4  O=C(NCCCCCCCCNC(=O)c1cc(O)c(O)c(O)c1)c1cc(O)c(O)c(O)c1          EC90         > 50 µM

Proceed to the following item.
Param item = `O=C(NCCCCCCCCCCCCNC(=O)c1ccccc1O)c1ccccc1O` ; retrieve measured EC90.
> 6.7 µM
